Value source: patent US20210246204A1

Target: human Siglec-7 on primary human monocyte-derived dendritic cells (human, UniProt Q9Y286 19-467)
Sequence (Q9Y286 19-467): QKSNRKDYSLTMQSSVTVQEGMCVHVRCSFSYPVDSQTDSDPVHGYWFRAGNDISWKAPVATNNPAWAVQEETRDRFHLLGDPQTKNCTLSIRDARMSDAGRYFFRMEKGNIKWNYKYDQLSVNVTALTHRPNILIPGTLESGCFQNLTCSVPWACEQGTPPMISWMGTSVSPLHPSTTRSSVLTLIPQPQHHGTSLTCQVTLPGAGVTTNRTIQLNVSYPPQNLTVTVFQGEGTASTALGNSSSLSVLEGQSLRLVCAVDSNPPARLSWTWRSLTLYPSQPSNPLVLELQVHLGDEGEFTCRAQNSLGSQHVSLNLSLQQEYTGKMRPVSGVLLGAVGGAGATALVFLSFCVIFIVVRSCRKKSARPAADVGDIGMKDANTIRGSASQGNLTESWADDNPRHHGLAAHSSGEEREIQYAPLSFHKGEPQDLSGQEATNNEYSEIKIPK
Assay: cell-based or functional assay
Catalogue of Fold increase in potency compared to AB-H8 readings, one per entry.
test.readout: Fold increase in potency compared to AB-H8

binder: S7AB-H8.33 (antibody, V domains shown) VH: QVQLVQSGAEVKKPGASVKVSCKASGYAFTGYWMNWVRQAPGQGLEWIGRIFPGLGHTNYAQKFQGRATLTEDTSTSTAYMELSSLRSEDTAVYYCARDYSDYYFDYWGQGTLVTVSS VL: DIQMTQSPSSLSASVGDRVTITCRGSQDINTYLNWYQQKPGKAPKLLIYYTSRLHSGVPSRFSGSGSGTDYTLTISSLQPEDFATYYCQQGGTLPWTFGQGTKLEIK
result: 5.2 fold
//
binder: S7AB-H8.20 (antibody, V domains shown) VH: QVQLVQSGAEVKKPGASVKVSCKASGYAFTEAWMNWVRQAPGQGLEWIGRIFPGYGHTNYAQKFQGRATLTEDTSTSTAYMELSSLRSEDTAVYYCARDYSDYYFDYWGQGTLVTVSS VL: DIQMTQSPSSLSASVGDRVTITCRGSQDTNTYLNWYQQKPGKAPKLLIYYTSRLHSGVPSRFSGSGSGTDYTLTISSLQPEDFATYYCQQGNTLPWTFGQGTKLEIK
result: 1.4 fold
//
binder: S7AB-H8.1 (antibody, V domains shown) VH: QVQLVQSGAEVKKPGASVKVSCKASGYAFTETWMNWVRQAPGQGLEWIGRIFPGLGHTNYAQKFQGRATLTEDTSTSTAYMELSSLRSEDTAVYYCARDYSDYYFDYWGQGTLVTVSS VL: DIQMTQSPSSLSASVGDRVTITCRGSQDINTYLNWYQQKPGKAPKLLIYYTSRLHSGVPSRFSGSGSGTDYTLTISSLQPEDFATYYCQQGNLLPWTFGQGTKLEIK
result: 2.9 fold
